tested on: MLMA (Other Blood Carcinomas); assay: Bliss excess, mean over the matrix (fraction); higher = more synergy;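 also: after 72 h of two-drug dosing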

{"compound": "O=C(c1cc(Cc2n[nH]c(=O)c3ccccc23)ccc1F)N1CCN(C(=O)C2CC2)CC1 [Olaparib] + CC1(C)CCC(CN2CCN(c3ccc(C(=O)NS(=O)(=O)c4ccc(NCC5CCOCC5)c([N+](=O)[O-])c4)c(Oc4cnc5[nH]ccc5c4)c3)CC2)=C(c2ccc(Cl)cc2)C1 [Venetoclax] (first compound max 10 µM, 7x7, partner max 1 µM)", "Bliss excess": -0.0299}
{"compound": "CCc1c2c(nc3ccc(O)cc13)-c1cc3c(c(=O)n1C2)COC(=O)[C@]3(O)CC [SN-38] + CN(C)CCCOc1ccc(-c2ccc3ncc4c(c3c2)n(C2CCOCC2)c(=O)n4C)cn1 [AZD0156] (first compound max 0.3 µM, 7x7, partner max 1 µM)", "Bliss excess": -0.0501}
{"compound": "NC1(C(=O)N[C@@H](CCO)c2ccc(Cl)cc2)CCN(c2ncnc3[nH]ccc23)CC1 [Capivasertib] + COc1nnc2ccc(N3CCC(c4ccc(OCCN5CCN(C)C(=O)[C@H]5C)cc4)CC3)nn12 [AZD5153] (first compound max 10 µM, 7x7, partner max 1 µM)", "Bliss excess": -0.0177}

###

system: TGW (Neuroblastoma); test: combination Emax (second highest fraction inhibited in the dose matrix, 72 h); higher = more inhibition; extreme values may be limits of the assay
// values below are reported combination Emax

{"molecule": "COc1cccc2c1C(=O)c1c(O)c3c(c(O)c1C2=O)C[C@@](O)(C(=O)CO)C[C@@H]3O[C@H]1C[C@H](N)[C@H](O)[C@H](C)O1 [Doxorubicin] + Cc1cc2ncnn2cc1Nc1ncc2c(n1)n(C1CCOCC1)c(=O)n2C [AZD7648] (first compound max 1 µM, 7x7, partner max 10 µM)", "combination Emax": 0.497}
{"molecule": "CN(CCO)CC[C@H](CSc1ccccc1)Nc1ccc(S(=O)(=O)NC(=O)c2ccc(N3CCC([C@@H](O)c4ccccc4-c4ccc(Cl)cc4)CC3)cc2)cc1S(=O)(=O)C(F)(F)F [AZD4320] + C[C@@H](Nc1cc(F)cc(F)c1)c1cc(C(=O)N(C)C)cc2c(=O)cc(N3CCOCC3)oc12 [AZD8186] (first compound max 1 µM, 7x7, partner max 3 µM)", "combination Emax": 0.968}
{"molecule": "C[C@@H]1COCCN1c1cc(C2([S@](C)(=N)=O)CC2)nc(-c2ccnc3[nH]ccc23)n1 [AZD6738] + O=C(c1cc(Cc2n[nH]c(=O)c3ccccc23)ccc1F)N1CCN(C(=O)C2CC2)CC1 [Olaparib] (first compound max 10 µM, 7x7, partner max 10 µM)", "combination Emax": 0.731}
{"molecule": "CS(=O)(=O)CCNCc1ccc(-c2ccc3ncnc(Nc4ccc(OCc5cccc(F)c5)c(Cl)c4)c3c2)o1 [Lapatinib] + C[C@@H](Oc1cc(-c2cnn(C3CCNCC3)c2)cnc1N)c1c(Cl)ccc(F)c1Cl [Crizotinib] (first compound max 10 µM, 7x7, partner max 10 µM)", "combination Emax": 0.776}
{"molecule": "Cn1cnc2c(F)c(Nc3ccc(Br)cc3Cl)c(C(=O)NOCCO)cc21 [Selumetinib] + C=CCn1c(=O)c2cnc(Nc3ccc(N4CCN(C)CC4)cc3)nc2n1-c1cccc(C(C)(C)O)n1 [AZD1775] (first compound max 10 µM, partner max 1 µM)", "combination Emax": 0.566}
{"molecule": "C=CCn1c(=O)c2cnc(Nc3ccc(N4CCN(C)CC4)cc3)nc2n1-c1cccc(C(C)(C)O)n1 [AZD1775] + CCc1c2c(nc3ccc(O)cc13)-c1cc3c(c(=O)n1C2)COC(=O)[C@]3(O)CC [SN-38] (first compound max 1 µM, partner max 0.3 µM)", "combination Emax": 0.728}
{"molecule": "CS(=O)(=O)CCNCc1ccc(-c2ccc3ncnc(Nc4ccc(OCc5cccc(F)c5)c(Cl)c4)c3c2)o1 [Lapatinib] + NC1(c2ccc(-c3nc4ccn5c(=O)[nH]nc5c4cc3-c3ccccc3)cc2)CCC1 [MK-2206] (first compound max 10 µM, 7x7, partner max 10 µM)", "combination Emax": 0.422}
{"molecule": "Cc1cc2ncnn2cc1Nc1ncc2c(n1)n(C1CCOCC1)c(=O)n2C [AZD7648] + C=CCn1c(=O)c2cnc(Nc3ccc(N4CCN(C)CC4)cc3)nc2n1-c1cccc(C(C)(C)O)n1 [AZD1775] (first compound max 10 µM, partner max 1 µM)", "combination Emax": 0.732}
